TARGET OR SYSTEM: neutrophil collagenase (MMP-8) (Homo sapiens)
Construct: catalytic domain of human stromelysin and of neutrophil collagenase
Sequence (P22894 100-262 limits assumed): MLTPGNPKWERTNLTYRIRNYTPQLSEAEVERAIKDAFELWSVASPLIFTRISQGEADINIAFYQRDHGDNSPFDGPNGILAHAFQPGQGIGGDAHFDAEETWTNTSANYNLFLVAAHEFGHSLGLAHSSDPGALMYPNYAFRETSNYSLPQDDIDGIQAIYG
TEST DESCRIPTION: Inhibition of enzymatic activity of catalytic domain of neutrophil collagenase (fluorogenic substrate)
EXPERIMENTAL CONDITIONS: pH 6.5, 15 min preincubation
Structures can show the parent of a compound that is named as a salt.
OBSERVATION TYPE: IC50 (nM)

[[record]]
compound = "O=C(CC[C@H](NS(=O)(=O)c1ccc(-c2ccccc2)cc1)C(=O)O)NCCCN1CCOCC1 [Example 5, trifluoroacetate]"
unit_of_measure = "nM"
recorded_result = 6

[[record]]
compound = "O=C(O)[C@H](CCC(=O)N1CCc2ccccc21)NS(=O)(=O)c1ccc(-c2ccc(N3CCCC3)cc2)cc1"
unit_of_measure = "nM"
recorded_result = 4

[[record]]
compound = "O=C(O)[C@H](CCC(=O)N1CCc2ccccc21)NS(=O)(=O)c1ccc(-c2ccc(Cl)cc2)cc1"
unit_of_measure = "nM"
recorded_result = 10

[[record]]
compound = "O=C(O)[C@@H](CCC(=O)N1CCc2ccccc21)NS(=O)(=O)c1ccc(-c2ccc(Cl)cc2)cc1"
unit_of_measure = "nM"
recorded_result = 10

[[record]]
compound = "O=C(O)[C@H](CCC(=O)N1CCc2cc(F)ccc21)NS(=O)(=O)c1ccc(-c2ccc(N3CCOCC3)cc2)cc1"
unit_of_measure = "nM"
recorded_result = 10

[[record]]
compound = "O=C(O)[C@H](CCC(=O)N1CCc2cc(F)ccc21)NS(=O)(=O)c1ccc(-c2ccc(N3CCCC3)cc2)cc1"
unit_of_measure = "nM"
recorded_result = 2

[[record]]
compound = "O=C(CC[C@H](NS(=O)(=O)c1ccc(-c2ccccc2)cc1)C(=O)O)Nc1cccc2ccccc12"
unit_of_measure = "nM"
recorded_result = 10


The measured values listed here are drawn from patent US6335333B1.
